# assay-protocol: method code SF-AS, from PMID: 1608988
# settings: pH 7.3
quantity-kind: logD

A: CCCCCCCOc1cccc(NC(=O)OCCN2CCOCC2)c1
B: CCCCOc1ccc(NC(=O)OCCN2CCOCC2)cc1
C: CCOc1ccc(NC(=O)OCCN2CCOCC2)cc1
Sort the listed compounds above so the one with the largest logD comes first and the smallest comes last. Give me the labels in the order the question wants.
A, B, C
(A: 4.73, B: 2.8, C: 1.63)

P: CCCCCCCOc1ccccc1NC(=O)OCCN1CCOCC1
Q: CCCOc1ccc(NC(=O)OCCN2CCOCC2)cc1
Choose between P and Q : whose measured logD value is numerically larger? Output the label that corresponds to your choice.
P
(P: 3.99, Q: 2.24)

I: CCCCCCOc1ccc(NC(=O)OCCN2CCOCC2)cc1
II: COc1ccccc1NC(=O)OCCN1CCOCC1
Smaller logD value? Options are I and II Output the label that corresponds to your choice.
II
(II: 1.2, I: 3.96)

###

# assay-protocol: method code SF-AS, from PMID: 1608988
# settings: pH 7.3
quantity-kind: logD

smiles-notation: CCCCCCCOc1ccc(NC(=O)OCCN2CCOCC2)cc1
value-observed: 4.41
//
smiles-notation: CCCCCCCCOc1ccccc1NC(=O)OCCN1CCOCC1
value-observed: 4.43
//
smiles-notation: CCCOc1ccccc1NC(=O)OCCN1CCOCC1
value-observed: 2.26
//
smiles-notation: CCCCCOc1cccc(NC(=O)OCCN2CCOCC2)c1
value-observed: 3.58

I: CCCCCCOc1ccccc1NC(=O)OCCN1CCOCC1
II: CCCOc1cccc(NC(=O)OCCN2CCOCC2)c1
Choose between I and II : whose measured logD value is numerically larger? Output the label that corresponds to your choice.
I
(I: 3.68, II: 2.5)

I: CCCCCCOc1cccc(NC(=O)OCCN2CCOCC2)c1
II: COc1cccc(NC(=O)OCCN2CCOCC2)c1
Smaller logD value? Options are I and II Output the label that corresponds to your choice.
II

###

# assay-protocol: method code SF-AS, from PMID: 1608988
# settings: pH 7.3
quantity-kind: logD

Reference set, count: 3
smiles-notation: CCCCOc1ccccc1NC(=O)OCCN1CCOCC1
quantity-kind: logD
value-observed: 2.73
//
smiles-notation: CCCCCCCCOc1cccc(NC(=O)OCCN2CCOCC2)c1
quantity-kind: logD
value-observed: 4.42
//
smiles-notation: CCCCCCCCOc1ccc(NC(=O)OCCN2CCOCC2)cc1
quantity-kind: logD
value-observed: 4.8

A: CCCCCOc1ccc(NC(=O)OCCN2CCOCC2)cc1
B: CCOc1ccccc1NC(=O)OCCN1CCOCC1
Choose between A and B : whose measured logD value is numerically larger? Output the label that corresponds to your choice.
A
